Sourced from PubChem BioAssay AID434954

Biological target: Glycogen synthase kinase-3 beta (Homo sapiens)
Assay: concentration-response blocking of human GSK3B – biochemical, luminescence, cell-free homogeneous, retest, dose response (AID 434954)
Conditions: recombinant GSK3beta, ADP-Glo luminescence, 60 min
Calls of active or inactive are those of the source.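 Rule for the calls: active = IC50 at or below a set limit above the highest tested dose; inconclusive = flat curve with 30 to 70% inhibition, or poor fit; inactive = the rest.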
Labels: active, inactive

>  <molecule>
Cc1ccc(/C=N/Nc2ncnc3nc[nH]c23)cc1

>  <answer label>
active

$$$$
>  <molecule>
COc1cccc(/C=N/Nc2cc(Cl)nc(C)n2)c1O

>  <answer label>
inactive

$$$$
>  <molecule>
O=C(O)c1ccc(N=Nc2c(O)[nH]c3cc(Cl)ccc23)cc1

>  <answer label>
active

$$$$
>  <molecule>
Nc1ncnc2c1ncn2[C@@H]1O[C@H](CO)[C@@H](O)[C@H]1O

>  <answer label>
inactive

$$$$
>  <molecule>
CC(C)Sc1nc2c(c(=O)[nH]1)C(c1cccs1)C1=C(CC(C)(C)CC1=O)N2 (stereo unspecified)

>  <answer label>
inactive

$$$$
>  <molecule>
Cc1cccc(N=Nc2c(C)c(C#N)c(O)[nH]c2=O)c1

>  <answer label>
active

$$$$
>  <molecule>
COC(=O)c1ccc(N2C(=O)CC(N3CCN(C(=O)c4ccco4)CC3)C2=O)cc1 (stereo unspecified)

>  <answer label>
inactive

$$$$
>  <molecule>
CC1=C(C(=O)OCc2ccccc2)C(c2ccccc2OC(F)F)NC(=O)N1 (stereo unspecified)

>  <answer label>
active

$$$$
>  <molecule>
N#CCCn1cc(/C=N/O)c(-c2ccc(-c3ccccc3)cc2)n1

>  <answer label>
inactive

$$$$
>  <molecule>
O=C(O)c1cccc(-c2ccc(/C=N/Nc3ccc([N+](=O)[O-])cc3)o2)c1

>  <answer label>
inactive

$$$$
>  <molecule>
CN=C(C)/C(C(=O)OC)=C(/O)c1ccc(Cl)cc1Cl

>  <answer label>
inactive

$$$$
